STUDY SYSTEM: NAD-dependent protein deacetylase sirtuin-2 (Homo sapiens) (UniProt Q8IXJ6)
Sequence (Q8IXJ6 whole entry): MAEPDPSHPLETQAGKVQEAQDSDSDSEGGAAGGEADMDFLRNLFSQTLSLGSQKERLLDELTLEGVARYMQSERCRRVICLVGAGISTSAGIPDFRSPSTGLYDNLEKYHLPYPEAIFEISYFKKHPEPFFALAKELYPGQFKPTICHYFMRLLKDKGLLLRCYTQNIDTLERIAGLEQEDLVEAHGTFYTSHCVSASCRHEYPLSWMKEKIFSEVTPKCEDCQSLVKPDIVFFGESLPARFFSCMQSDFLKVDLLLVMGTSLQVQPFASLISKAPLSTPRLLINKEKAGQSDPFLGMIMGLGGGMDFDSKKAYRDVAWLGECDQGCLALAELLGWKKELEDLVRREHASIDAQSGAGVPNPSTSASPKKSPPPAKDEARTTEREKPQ
ASSAY NAME: Inhibition of human SIRT2 assessed as enzyme activity using Fluor-de-Lys as substrate at 1 mM by fluorometry
Design: scale not given: the % may be the effect or the level left
Would you mind telling me the reported Activity of each entry?
Note: unit % is implicit; provide only the numeric part.

Ask: What Activity value was documented for this compound, Cc1ccc(C(=O)Nc2ccc(S(=O)(=O)O)c3cc(S(=O)(=O)O)cc(S(=O)(=O)O)c23)cc1NC(=O)c1cccc(NC(=O)Nc2cccc(C(=O)Nc3cc(C(=O)Nc4ccc(S(=O)(=O)O)c5cc(S(=O)(=O)O)cc(S(=O)(=O)O)c45)ccc3C)c2)c1 ?
Reply: 20

Ask: Reported Activity for O=C1NCCc2ccncc21 : what is it?
Reply: 136

Ask: Form field: reported Activity of Cc1ccncc1C(N)=O
Reply: 110

Ask: Entry under review: O=C1NCc2ncccc21 . Reported Activity?
Reply: 111

Ask: Quick one: Activity of NC(=O)/C=C/c1cccnc1 ?
Reply: 109

Ask: I would be grateful if you could share the reported Activity for Cc1ncccc1C(N)=O .
Reply: 107

Ask: // query Activity value for entry O=C1NCc2ccncc21
Reply: 145

Ask: What measured Activity goes with NS(=O)(=O)c1cccnc1 ?
Reply: 115

Ask: // Activity lookup, key: c1cncc(-n2ccnn2)c1
Reply: 100

Ask: I would be grateful if you could share the reported Activity for c1cncc(-c2cnn[nH]2)c1 .
Reply: 92

Ask: Which measured Activity value corresponds to O=C1NCCc2ncccc21 ?
Reply: 115

Ask: Look up Activity: NC(=O)c1cccnc1
Reply: 71

Source: ChEMBL document CHEMBL2062496
